Measured IC50 of individual entries
System Tested: PI3K γ (p110γ) (Homo sapiens)
Construct: purchased Upstate / Millipore Corporation
Sequence (P48736 whole entry): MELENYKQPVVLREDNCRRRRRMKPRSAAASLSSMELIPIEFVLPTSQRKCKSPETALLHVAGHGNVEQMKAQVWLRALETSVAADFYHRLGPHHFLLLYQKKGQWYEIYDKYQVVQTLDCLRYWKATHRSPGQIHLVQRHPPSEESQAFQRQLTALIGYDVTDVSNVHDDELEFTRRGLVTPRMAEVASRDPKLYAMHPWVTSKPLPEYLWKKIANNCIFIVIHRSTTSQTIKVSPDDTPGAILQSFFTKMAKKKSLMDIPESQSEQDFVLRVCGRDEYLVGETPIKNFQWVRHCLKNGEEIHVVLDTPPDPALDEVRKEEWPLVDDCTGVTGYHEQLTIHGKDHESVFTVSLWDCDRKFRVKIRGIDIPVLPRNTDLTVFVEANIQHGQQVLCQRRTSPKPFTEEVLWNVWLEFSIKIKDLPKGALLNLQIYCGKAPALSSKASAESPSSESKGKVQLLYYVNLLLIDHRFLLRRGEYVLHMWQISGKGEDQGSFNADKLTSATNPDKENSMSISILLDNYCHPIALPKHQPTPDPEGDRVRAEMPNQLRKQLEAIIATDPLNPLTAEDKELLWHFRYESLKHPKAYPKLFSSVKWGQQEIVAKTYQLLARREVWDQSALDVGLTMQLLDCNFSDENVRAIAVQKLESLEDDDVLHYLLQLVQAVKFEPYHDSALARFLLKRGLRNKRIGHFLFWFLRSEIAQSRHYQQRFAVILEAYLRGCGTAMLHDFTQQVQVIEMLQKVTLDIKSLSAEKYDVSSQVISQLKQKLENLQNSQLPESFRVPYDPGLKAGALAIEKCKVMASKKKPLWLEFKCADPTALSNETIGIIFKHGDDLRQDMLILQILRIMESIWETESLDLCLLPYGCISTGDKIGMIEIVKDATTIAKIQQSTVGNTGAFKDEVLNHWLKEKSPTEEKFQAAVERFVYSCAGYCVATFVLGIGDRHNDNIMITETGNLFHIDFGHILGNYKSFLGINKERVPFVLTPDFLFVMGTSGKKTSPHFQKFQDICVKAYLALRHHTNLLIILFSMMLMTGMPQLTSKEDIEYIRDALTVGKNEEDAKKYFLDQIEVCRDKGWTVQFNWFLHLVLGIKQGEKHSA
Assay Summary: PI 3-Kinase (human) HTRF assay, PI3K γ
Type: biochemical
Conditions Used: read-out: PI3K γ IC50

Record excerpt, results attached:
- Compound: "CN1CCC(c2cnc3ccc(-c4ccc5oc(N)nc5c4)cc3n2)CC1 [Compound 385]"
  System Tested: "PI3K γ (p110γ) (Homo sapiens)"
  IC50: "> 10 µM"
- Compound: "CN1CCN(c2cc(-c3cnc4ccc(-c5ccc6oc(N)nc6c5)cn34)ccn2)CC1 [Compound 43]"
  System Tested: "PI3K γ (p110γ) (Homo sapiens)"
  IC50: "< 0.1 µM"
- Compound: "CN1CCN([C@H]2CCN(c3cnc4ccc(-c5ccc6oc(N)nc6c5)cc4n3)C2)CC1 [Compound 381]"
  System Tested: "PI3K γ (p110γ) (Homo sapiens)"
  IC50: "< 10 µM"
- Compound: "Nc1nc2cccc(-c3ccc4ncc(C(=O)N5CCOCC5)n4c3)c2o1 [Compound 484]"
  System Tested: "PI3K γ (p110γ) (Homo sapiens)"
  IC50: "> 10 µM"

Reported IC50 ( Nc1nc2cc(-c3ccc4ncc(N5CC(N)C5)nc4c3)ccc2o1 [Compound 367] ) = < 1 µM

Looking up Nc1nc2cc(-c3ccc4ncc(-c5cccnc5)nc4c3)ccc2o1 [Compound 76] , I found its IC50 recorded as < 1 µM

Recorded IC50 (compound CN1CCN(C(=O)c2cnc3ccc(-c4ccc5nc(N)sc5c4)cn23)CC1 [Compound 146] ): > 10 µM

Form field IC50, entry Nc1nc2cc(-c3ccc4ncc(NC5CCOCC5)nc4c3)ccc2o1 [Compound 96] : < 0.1 µM

Reference for the values: patent US20150087627A1
